Listing of entries alongside the reported TGI.
Test system: HCT-15 colon
MEASUREMENT_NOTES: NCI tumour cell line growth inhibition, 48 h

Clc1ccccc1[C@@H]1C[C@@H]2Cc3cc(Br)c4ccccc4c3N1O2: > 100 µM
O=C(O)C1CCN(Cc2oc(CO)cc(=O)c2O)C1 (configuration not stated): > 100 µM
COc1cc(N)c2[nH]c3c(C)ccc(C)c3c2c1: > 100 µM
C#CCN(N=O)C(=O)NCCCCC(NC(=O)OCc1ccccc1)C(=O)OCc1ccccc1 (configuration not stated): > 100 µM
COc1cc(NS(C)(=O)=O)ccc1NCc1cnc2ccc3[nH]cccc3c12: 58.4 µM
O=C(NNS(=O)(=O)c1ccc(Br)cc1)c1ccc(Cl)cc1NC(=O)C12CC3CC(CC(C3)C1)C2: 45.4 µM

Observed TGI on HCT-15 colon, entry Cc1ccc2n(c1)cc(-c1ccc(/C=N/NC(=N)N/N=C/c3ccc(-c4cn5cc(C)ccc5[n+]4C)cc3)cc1)[n+]2C , equals > 100 µM

Observed TGI on HCT-15 colon, entry COC1=CC(=O)c2c(cc(COP(N)(=O)N(CCCl)CCCl)n2C)C1=O (configuration not stated) , equals 3.54 µM

Observed TGI on HCT-15 colon, entry c1cc(CN2CCCNCCNCCCNCC2)ccc1CN1CCCNCCNCCCNCC1 , equals > 100 µM

Observed TGI on HCT-15 colon, entry O=c1c(Nc2ccccc2)cn(CCOc2ccc(Cl)cc2)c(=O)n1CCOc1ccc(Cl)cc1 , equals > 100 µM

Observed TGI on HCT-15 colon, entry COc1cc2c(c(O)c1C)C(=O)CC(c1ccccc1)O2 (configuration not stated) , equals > 100 µM

Observed TGI on HCT-15 colon, entry CCCN(CCC)CCc1cc(C(C)=O)n(S(=O)(=O)c2ccc(C)cc2)c1 , equals > 100 µM

Observed TGI on HCT-15 colon, entry CCNc1cc2oc(=O)cc(C(F)(F)F)c2cc1C , equals > 100 µM

Observed TGI on HCT-15 colon, entry Cc1cc2c(c3nocc13)C(=O)c1ccccc1C2=O , equals > 100 µM

Observed TGI on HCT-15 colon, entry CCCCC(=C=C(C)CO)C1CCCN1C(=O)OC(C)(C)C (configuration not stated) , equals 39 µM

Observed TGI on HCT-15 colon, entry O=C1/C(=C/c2ccc(F)c(F)c2)CN(C(=O)C(Cl)Cl)C/C1=C\c1ccc(F)c(F)c1 , equals 0.164 µM

Observed TGI on HCT-15 colon, entry O=C(N/N=C\c1cccs1)c1ccncc1 , equals > 100 µM

Observed TGI on HCT-15 colon, entry CCCCCCCCCCCC[N+](C)(C)Cc1ccccc1 , equals 34.3 µM

====

Test system: PC-3 prostate
MEASUREMENT_NOTES: NCI tumour cell line growth inhibition, 48 h; in the data active = GI50 below about 0.43 µM; inactive = the rest
*1 amine or outer side, *2 acyl side, *3 side chain or, on linkers, in order; H or OH if unused. Where a SMILES comes first, the peptide text is derived from it. Bridges are numbered along the chain shown (N, C = ends). Roman numbers before positions name the chains, in order. [ ]: non-standard residue; d: D form. Actinocin(9to1) = Cc1c2oc3c(C)ccc(C(=O)[*:1])c3nc-2c(C(=O)[*:2])c(N)c1=O; NMeV = CN[CH](C(=O)O)C(C)C; Sar = CNCC(=O)O
Your answer must be one of the following: class 1 (active), class 0 (inactive)

COc1cc2c3c(n(CCCCNC(=O)OC(C)(C)C)c(=O)c2cc1OC)-c1cc2c(cc1C3=O)OCO2: class 0
CC(=Nc1ccccc1)C1=C(O)C(Cc2cccc(F)c2)NC1=O (centres undefined): class 1
CC(CN(C)C)S(=O)(=O)c1ccc(-c2cnc(N)c(C(=O)Nc3ccccc3)n2)cc1 (centres undefined): class 0
Cc1ccc(-c2c(C#N)[n+](=O)c3cc(F)c(F)cc3n2[O-])cc1: class 0
Cc1cc(C(=O)Nc2cc(Oc3ccc4nc(NC(=O)C5CC5)cn4n3)ccc2C)n(C)n1: class 0

Ask | Test call, this molecule: Oc1[nH]c(N=C2N=c3ccccc3=N2)c2ccccc12
Reply | class 0

Ask | Test call, this molecule: COC12C=C/C(=C(/C(=O)OCCSc3ccnn3C)C(=O)CCCCCCCCC3(OC)C=C/C(=C(/C(=O)OCCSc4ccnn4C)C(=O)CCCCCCCC1)O3)O2
Reply | class 0

Ask | Test call, this molecule: Cc1c2oc3c(C)ccc(C(=O)OC(C)C4NC(=O)C(C(C)C)N(C)C(=O)CN(C)C(=O)C5CCCN5C(=O)C(C(C)C)NC4=O)c3nc-2c(C(=O)OC(C)C2NC(=O)C(C(C)C)N(C)C(=O)CN(C)C(=O)C3CCCN3C(=O)C(C(C)C)NC2=O)c(N)c1=O (centres undefined) (I: cyclo([Sar][NMeV]TVP) / II: cyclo([Sar][NMeV]TVP); linker I:3-II:3 via Actinocin(9to1); configuration not given here)
Reply | class 1

Ask | Test call, this molecule: c1ccc2cc(Cn3cc[n+](Cc4ccc5ccccc5c4)c3)ccc2c1
Reply | class 0

Ask | Test call, this molecule: COc1cccc(OC(=O)c2ccc(C(F)(F)F)nc2Nc2c(C)cccc2Cl)c1
Reply | class 0

Ask | Test call, this molecule: O=c1cc(-c2ccccc2)oc2ccc(OC/C(=N/O)c3ccc(F)cc3)cc12
Reply | class 0

Ask | Test call, this molecule: O=C(Nc1ccc2ncnc(Nc3ccc(Oc4cccc(F)c4)c(Cl)c3)c2c1)c1ccc(CN2CCOCC2)cc1
Reply | class 0

Ask | Test call, this molecule: COc1cccc(Sc2ccc([N+](=O)[O-])c3no[n+]([O-])c23)c1
Reply | class 0

Ask | Test call, this molecule: C=C(C)[C@@H]1C/C=C(/CO)CC[C@H]2O[C@]2(C)CC/C=C(\C)CC1
Reply | class 0

====

Tested on: SNB-75 CNS
MEASUREMENT_NOTES: NCI tumour cell line growth inhibition, 48 h
OBSERVABLE: GI50

Consider the reported GI50 for these molecules:
CCC#CC[C@H](O)C/C=C1/C(=O)C=C[C@@H]1C/C=C\CCCC(=O)OC: 5.07 µM
Cc1ccc2[nH]c3c(c2c1)N=c1ccccc1=NO3: 25.4 µM
Cc1cc(C(=O)Nc2cc(Oc3ccc4nc(NC(=O)C5CC5)cn4n3)ccc2C)n(C)n1: > 10 µM

Briefly, GI50 measured for N#Cc1ccc(CSc2ncnc3nc[nH]c23)cc1 : 6.86 µM

====

Listing of entries alongside the reported TGI.
System: DLD-1 colon
MEASUREMENT_NOTES: NCI tumour cell line growth inhibition, 48 h
Where a SMILES comes first, the peptide text is derived from it. The star is where a group is joined. Boc = CC(C)(C)OC(=O)*

Consider the reported TGI for these molecules:
CSCCC(NC(=O)C(CC(C)C)NC(=O)C1CCCN1C(=O)C(Cc1ccccc1)NC(=O)C(Cc1ccccc1)NC(=O)C(CCC(=O)O)NC(=O)OC(C)(C)C)C(N)=O (centres undefined) (Boc-EFFPLM-NH2; configuration not given here): > 100 µM
COc1cccc2c1C(=O)c1c(O)c3c(c(O)c1C2=O)C[C@@](O)(C(=O)CN1CCOCC1)C[C@@H]3OC1CC(N)C(O)C(C)O1 (some centres undefined): > 74.4 µM
CCOP(=O)(OCC)/C(C#N)=C\c1ccsc1: > 100 µM

Briefly, TGI measured for O=S(=O)(c1ccccc1)c1nccs1 : > 100 µM

Briefly, TGI measured for COc1cccc2c1C(=O)c1c(O)c3c(c(O)c1C2=O)C[C@@](O)(C(C)=O)C[C@@H]3OC1CC([N+]([O-])(Cc2ccccc2)Cc2ccccc2)C(O)C(C)O1 (some centres undefined) : 3.22 µM

====

Test system: SF-268 CNS
MEASUREMENT_NOTES: NCI tumour cell line growth inhibition, 48 h
Listing of entries alongside the reported TGI.

N=c1n(CC(=O)NC23CC4CC(CC(C4)C2)C3)c2ccccc2n1CC(=O)NC12CC3CC(CC(C3)C1)C2: 3.72 µM

Observed TGI on SF-268 CNS, entry COC1(OC)C2(Cl)C(Cl)=C(Cl)C1(Cl)C1c3ccc(C(C)=O)c4cccc(c34)C12 (centres undefined) , equals > 100 µM

Observed TGI on SF-268 CNS, entry O=C(N/C(=C\c1c(O)ccc2ccccc12)c1nc2ccccc2[nH]1)c1ccccc1 , equals > 100 µM

Observed TGI on SF-268 CNS, entry CO[C@H]1CC[C@]2(C)C3=CC[C@@]4(C)C(CC[C@@H]4C(C)CC[C@@H](C)C(C)C)C(=CCC2C1)O3 (some centres undefined) , equals > 25 µM

Observed TGI on SF-268 CNS, entry Cc1ccc2n(c1)cc(-c1ccc(/C=N/NC(=N)N/N=C/c3ccc(-c4cn5cc(C)ccc5[n+]4C)cc3)cc1)[n+]2C , equals 43.8 µM

Observed TGI on SF-268 CNS, entry COC12C=C/C(=C(/C(=O)OCCSc3ccnn3C)C(=O)CCCCCCCCC3(OC)C=C/C(=C(/C(=O)OCCSc4ccnn4C)C(=O)CCCCCCCC1)O3)O2 , equals > 32.5 µM
